Give pIC50 for every item shown.
# Tgt: c-Cbl (Homo sapiens (Human))
# Sequence (P22681 47-435): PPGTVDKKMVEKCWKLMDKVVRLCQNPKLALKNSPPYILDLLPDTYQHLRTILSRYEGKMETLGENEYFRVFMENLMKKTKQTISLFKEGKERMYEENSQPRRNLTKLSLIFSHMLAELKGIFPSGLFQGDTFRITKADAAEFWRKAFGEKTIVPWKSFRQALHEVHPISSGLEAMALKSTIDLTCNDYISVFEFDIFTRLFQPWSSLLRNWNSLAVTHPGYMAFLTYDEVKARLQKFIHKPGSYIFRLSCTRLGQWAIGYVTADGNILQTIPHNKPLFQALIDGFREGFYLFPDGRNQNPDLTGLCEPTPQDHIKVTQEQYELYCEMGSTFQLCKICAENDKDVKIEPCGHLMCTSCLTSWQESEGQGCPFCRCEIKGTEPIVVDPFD
# Experimental Protocol: C-Cbl LCK Ub TR-FRET assay (c-cbl Lck HTRF)
# Format: biochemical
Where a name gives a salt, the structure may show the parent alone.
Units for pIC50: none; it is -log10 of a concentration expressed in mol/L.

get_value(item= Cn1cnnc1CC1(c2cc(Cl)nc(N3Cc4c(cc(CNC5(C)CCC5)cc4C(F)(F)F)C3=O)c2)CCC1 [Compound 351, formate] , readout=pIC50) returns 7.72

get_value(item= "CC(C)[C@H]1CN(C)CCN1Cc1cc2c(c(C(F)(F)F)c1)CN(c1cccc(C3([C@H](F)c4n[nH]cc4C(F)(F)F)COC3)c1)C2=O" , readout=pIC50) returns 4.70

get_value(item= "CCC1(O)CN(Cc2cc3c(c(C(F)(F)F)c2)CN(c2cccc(C4([C@H](F)c5nncn5C)COC4)c2)C3=O)C1" , readout=pIC50) returns 6.42
